Sourced from patent US20110256127A1

Target: LRP6.E1-E2-Fc (human)
Sequence (chain, as listed by the source limits assumed): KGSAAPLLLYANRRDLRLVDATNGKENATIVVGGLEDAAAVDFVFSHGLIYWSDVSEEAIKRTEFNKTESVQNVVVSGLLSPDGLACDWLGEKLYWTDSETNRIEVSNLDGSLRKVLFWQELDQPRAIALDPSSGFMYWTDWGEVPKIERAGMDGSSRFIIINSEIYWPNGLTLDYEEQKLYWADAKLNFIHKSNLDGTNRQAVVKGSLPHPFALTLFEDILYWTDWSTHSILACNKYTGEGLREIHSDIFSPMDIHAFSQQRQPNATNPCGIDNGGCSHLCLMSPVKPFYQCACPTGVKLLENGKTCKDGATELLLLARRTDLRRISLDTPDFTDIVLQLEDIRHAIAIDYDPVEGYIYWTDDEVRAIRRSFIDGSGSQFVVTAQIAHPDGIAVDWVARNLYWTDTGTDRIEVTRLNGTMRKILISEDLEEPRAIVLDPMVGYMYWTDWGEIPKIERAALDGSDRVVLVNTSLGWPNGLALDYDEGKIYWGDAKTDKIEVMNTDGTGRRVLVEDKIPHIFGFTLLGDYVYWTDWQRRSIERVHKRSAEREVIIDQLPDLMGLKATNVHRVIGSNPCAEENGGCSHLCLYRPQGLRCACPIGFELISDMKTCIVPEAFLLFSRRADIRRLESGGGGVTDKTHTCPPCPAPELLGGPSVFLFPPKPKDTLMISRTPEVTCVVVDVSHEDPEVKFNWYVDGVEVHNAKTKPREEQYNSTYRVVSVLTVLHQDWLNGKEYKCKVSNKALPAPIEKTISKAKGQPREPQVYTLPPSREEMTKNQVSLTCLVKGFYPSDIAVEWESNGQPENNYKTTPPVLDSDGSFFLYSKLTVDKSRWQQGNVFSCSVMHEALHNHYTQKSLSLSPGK
Experiment: ELISA
Measurement label: binding result

YW211.12 antibody (antibody, V domains shown) VH: EVQLVESGGGLVQPGGSLRLSCAASGFTFTGNDIHWVRQAPGKGLEWVGRIYPYGGYTDYADSVKGRFTISADTSKNTAYLQMNSLRAEDTAVYYCAKEVTYHLFDYWGQGTLVTVSS VL: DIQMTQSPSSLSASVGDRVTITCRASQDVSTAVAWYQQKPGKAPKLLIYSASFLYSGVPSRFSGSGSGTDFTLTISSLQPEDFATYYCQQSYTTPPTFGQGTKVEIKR    no binding
YW211.03 antibody (antibody, V domains shown) VH: EVQLVESGGGLVQPGGSLRLSCAASGFTFTGYWIHWVRQAPGKGLEWVGTISPAGGSTDYADSVKGRFTISADTSKNTAYLQMNSLRAEDTAVYYCARTDWRFHHAGEYAMDYWGQGTLVTVSS VL: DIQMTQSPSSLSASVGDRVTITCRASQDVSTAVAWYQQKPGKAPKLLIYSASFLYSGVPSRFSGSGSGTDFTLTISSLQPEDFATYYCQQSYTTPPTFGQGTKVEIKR    no binding
YW211.31 antibody (antibody, human IgG1, kappa, V domains shown, also called intact YW211.31 antibody) VH: EVQLVESGGGLVQPGGSLRLSCAASGFTFTSYYISWVRQAPGKGLEWVAEISPYSGSTYYADSVKGRFTISADTSKNTAYLQMNSLRAEDTAVYYCALRARPPIRLHPRGSVMDYWGQGTLVTVSS VL: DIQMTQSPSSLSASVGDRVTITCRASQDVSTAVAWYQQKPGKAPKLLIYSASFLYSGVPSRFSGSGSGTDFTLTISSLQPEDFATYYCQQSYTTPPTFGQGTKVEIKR    no binding
